Biological target: UniProtKB P00375
Test: Inhibition of dihydrofolate reductase from L1210 leukemia tumors
measured property: Log 1/C

item_smiles=Cc1cc(NC(=O)NCCOc2ccc(N3C(N)=NC(N)=NC3(C)C)cc2Cl)ccc1S(=O)(=O)F measured_property="Log 1/C" measured_number=7.82
item_smiles=CC1(C)N=C(N)N=C(N)N1c1ccc(OCc2ccc(Cl)cc2S(=O)(=O)F)c(Cl)c1 measured_property="Log 1/C" measured_number=7.52
item_smiles=CC1(C)N=C(N)N=C(N)N1c1ccc(OCc2cccc(S(=O)(=O)F)c2Cl)c(Cl)c1 measured_property="Log 1/C" measured_number=7.49
item_smiles=CC1(C)N=C(N)N=C(N)N1c1ccc(OCc2cccc(C(=O)Nc3ccc(S(=O)(=O)F)cc3)c2)c(Cl)c1 measured_property="Log 1/C" measured_number=6.92
item_smiles=CC1(C)N=C(N)N=C(N)N1c1ccc(OCc2ccc(C(=O)Nc3cccc(S(=O)(=O)F)c3)cc2)c(Cl)c1 measured_property="Log 1/C" measured_number=7.41
item_smiles=CC1(C)N=C(N)N=C(N)N1c1ccc(Cl)c(CCCCc2ccc(S(=O)(=O)F)cc2)c1 measured_property="Log 1/C" measured_number=6.77
item_smiles=COc1cccc(NC(=O)NCc2cccc(N3C(N)=NC(N)=NC3(C)C)c2)c1 measured_property="Log 1/C" measured_number=8.02
item_smiles=CC1(C)N=C(N)N=C(N)N1c1ccc(OCCCCNC(=O)Nc2cccc(S(=O)(=O)F)c2)c(Cl)c1 measured_property="Log 1/C" measured_number=7.7
item_smiles=CC1(C)N=C(N)N=C(N)N1c1cccc(CCCCc2ccc(Cl)cc2Cl)c1 measured_property="Log 1/C" measured_number=8.03

* * *

Target: Dihydrofolate reductase (Mus musculus)
Sequence (whole entry): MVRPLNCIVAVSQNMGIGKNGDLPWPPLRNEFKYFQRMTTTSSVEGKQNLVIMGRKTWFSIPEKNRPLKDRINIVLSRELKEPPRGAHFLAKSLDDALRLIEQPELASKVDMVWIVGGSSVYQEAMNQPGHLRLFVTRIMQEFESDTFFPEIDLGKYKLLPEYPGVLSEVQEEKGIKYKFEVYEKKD
Assay: Inhibition of dihydrofolate reductase from L1210 leukemia tumors
As shown below, each of these compounds has a reported Log 1/C value.
measured property: Log 1/C

item_smiles=CC1(C)N=C(N)N=C(N)N1c1ccc(CNC(=O)Nc2ccc(S(=O)(=O)F)cc2)c(Cl)c1 measured_number=7.92
item_smiles=CC1(C)N=C(N)N=C(N)N1c1ccc(CCCCc2ccccc2)c(Cl)c1 measured_number=7.92
item_smiles=CC1(C)N=C(N)N=C(N)N1c1cccc(OCC(=O)Nc2ccc(S(=O)(=O)F)cc2)c1 measured_number=6.92
item_smiles=CC1(C)N=C(N)N=C(N)N1c1ccc(OCc2ccc(S(=O)(=O)F)cc2)c(Cl)c1 measured_number=7.58
item_smiles=CC1(C)N=C(N)N=C(N)N1c1ccc(CCCCc2ccc(S(=O)(=O)F)cc2)cc1 measured_number=7.7
item_smiles=CCN(CC)C(=O)NCc1cccc(N2C(N)=NC(N)=NC2(C)C)c1 measured_number=6.11
item_smiles=CC1(C)N=C(N)N=C(N)N1c1ccc(Cl)c(OCCCOc2ccc(S(=O)(=O)F)cc2)c1 measured_number=7.51
item_smiles=CC1(C)N=C(N)N=C(N)N1c1ccc(CCc2ccc(S(=O)(=O)F)cc2Cl)c(Cl)c1 measured_number=8.33
item_smiles=CN(C(=O)COc1ccc(N2C(N)=NC(N)=NC2(C)C)cc1Cl)c1ccc(S(=O)(=O)F)cc1 measured_number=7.47
